These entries and their values trace back to patent US20230348362A1.

# assay-procedure: Lipid nanoparticle size and polydispersity by dynamic light scattering
# Type: physicochemical
# test-context: LNP of lipid/DSPC/cholesterol/PEG-lipid 50:10:38.5:1.5 encapsulating hEPO mRNA
measured-parameter: polydispersity

Here is how some compounds turned out for polydispersity.
compound	measured-parameter	recorded-measurement
CCCCCCCCC(CCCCCCCC)COC(=O)CCCCCN(CCNc1c(N(C)C)c(=O)c1=O)CCN(CCCCCC(=O)OCC(CCCCCCCC)CCCCCCCC)C1CCC1	polydispersity	0.096
CCCCCCCCCCC(=O)OCC(CCCCN(CCO)CCN(CCCCC(COC(=O)CCCCCCCCCC)COC(=O)CCCCCCCCCC)C1CCC1)COC(=O)CCCCCCCCCC	polydispersity	0.107

1 = CCCCCCCCCCCC(=O)OCCCCCN(CCN(CCO)CCCCCOC(=O)CC(CCCCCCCC)CCCCCCCC)C1CCC1
2 = CCCCCCCCC(CCCCCCCC)COC(=O)CCCCCN(CCCCCN(CCO)CCCCC(COC(=O)CCCCCCC)COC(=O)CCCCCCC)C1CCC1
Recorded polydispersity values differ for 1 and 2 ; which one is higher? Response format: the label of the selected entry.
2
(2: 0.083, 1: 0.014)

I = CCCCCCCCCCCOC(=O)CCCCCN1CCC(N(CCO)CCCCCCCC(=O)OC(CCCCCCCC)CCCCCCCC)CC1
II = CCCCCCCCC(CCCCCCCC)COC(=O)CCCCCN(C)CCN(CCCCCC(=O)OCC(CCCCCCCC)CCCCCCCC)CCNc1c(NC)c(=O)c1=O
III = CCCCCCCCC(CCCCCCCC)CC(=O)NCCCCCN(CCN(CCO)CCCCCOC(=O)CC(CCCCCCCC)CCCCCCCC)C1CCC1
IV = CCCCCCCCC(CCCCCCCC)CC(=O)NCCCCCN(CCO)CCN(CCCCCNC(=O)CC(CCCCCCCC)CCCCCCCC)C1CCC1
Ascending by polydispersity, please. Output spec: a listing of the labels in the requested order.
III, IV, I, II
(III: 0.026, IV: 0.039, I: 0.063, II: 0.104)

I = CCCCCCCCC(CCCCCCCC)CNC(=O)CCCCCN(CCNc1c(NC)c(=O)c1=O)CCN(C)CCCCCC(=O)OCC(CCCCCCCC)CCCCCCCC
II = CCCCCCCCC(CCCCCCCC)COC(=O)CCCCCN(CCO)CCN(CCCCCC(=O)OCC(CCCCCCCC)CCCCCCCC)C1CCCCC1C (stereo not drawn)
Recorded polydispersity values differ for I and II ; which one is higher? Response format: the label of the selected entry.
I
(I: 0.087, II: 0.05)

I = CCCCCCCCCCCOC(=O)CCCCCN(CCN(CCO)CCCCCCC(=O)OCC(CCCCCCCC)CCCCCCCC)C1CCCCC1
II = CCCCCCCCC(CCCCCC)COC(=O)CCCCCN(CCO)CCN(CCCCCC(=O)OCC(CCCCCC)CCCCCCCC)C1CCCCCC1 (stereo not drawn)
Recorded polydispersity values differ for I and II ; which one is higher? Response format: the label of the selected entry.
II
(II: 0.114, I: 0.07)

----------
# assay-procedure: Encapsulation efficiency of lipid nanoparticles, Quant-it Ribogreen RNA assay
# Type: physicochemical
# test-context: LNP of lipid/DSPC/cholesterol/PEG-lipid 50:10:38.5:1.5 encapsulating hEPO mRNA
measured-parameter: Encapsulation Efficiency (%)

chemical-smiles	measured-parameter	reading-unit	recorded-measurement
CCCCCCCCCOC(=O)CCCCCN(CCN(CCO)CCCCCC(=O)OCC(CCCCCCCC)CCCCCCCC)C1CCCCC1	Encapsulation Efficiency	%	90.14
CCCCCCCCC(CCCCCCCC)COC(=O)CCCCCN1CCC(N(CCO)CCCCC(COC(=O)CCCCCCC)COC(=O)CCCCCCC)CC1	Encapsulation Efficiency	%	95.18
CCCCCCCCC(CCCCCCCC)COC(=O)CCCCCN1CCC(N(CCO)CCCCCC(=O)OCC(CCCCCCCC)CCCCCCCC)CC1	Encapsulation Efficiency	%	96.0
